Where do these numbers come from? They come from PubChem BioAssay AID1963423.

Test system: 439559-082-T-J2-PDC complex spheroid growth
Assay: Anticancer human tumor 439559-082-T-J2-PDC patient-derived colon adenocarcinoma cell line growth inhibition [Asc]
Conditions: second compound 0.0949 µM; first compound 0.0316 µM; stronger effect = lower value
recorded.endpoint: viability, T/C (%)
Please respond with the number in % and leave the unit unwritten.

>  <compound>
COc1c(OCCCN2CCOCC2)ccc2c3n(c(=NC(=O)c4cnc(N)nc4)nc12)CCN3 + CCN1C(C(=O)NC23CCC(C(=O)O)(CC2)CC3)C(c2cccc(Cl)c2F)C2(C(=O)Nc3cc(Cl)ccc32)C12CCCCC2

>  <result.unit>
%

>  <observed.value>
90.7

$$$$
>  <compound>
NC1CCC(NC2CC2c2ccccc2)CC1 (stereo unspecified) + CCN1C(C(=O)NC23CCC(C(=O)O)(CC2)CC3)C(c2cccc(Cl)c2F)C2(C(=O)Nc3cc(Cl)ccc32)C12CCCCC2

>  <result.unit>
%

>  <observed.value>
98.8

$$$$
>  <compound>
CNC(C)C(=O)NC1CN(S(=O)(=O)c2cccc(S(=O)(=O)N3CCC4CCC(C(=O)NC(c5ccccc5)c5ccccc5)N4C(=O)C(NC(=O)C(C)NC)C3)c2)CCC2CCC(C(=O)NC(c3ccccc3)c3ccccc3)N2C1=O (stereo unspecified) + CCN1C(C(=O)NC23CCC(C(=O)O)(CC2)CC3)C(c2cccc(Cl)c2F)C2(C(=O)Nc3cc(Cl)ccc32)C12CCCCC2

>  <result.unit>
%

>  <observed.value>
106

$$$$
>  <compound>
O=C(c1cc(Cc2n[nH]c(=O)c3ccccc23)ccc1F)N1CCN(C(=O)C2CC2)CC1 + CCN1C(C(=O)NC23CCC(C(=O)O)(CC2)CC3)C(c2cccc(Cl)c2F)C2(C(=O)Nc3cc(Cl)ccc32)C12CCCCC2

>  <result.unit>
%

>  <observed.value>
104

$$$$
>  <compound>
CCN1CCN(Cc2ccc(Nc3ncc(F)c(-c4cc(F)c5nc(C)n(C(C)C)c5c4)n3)nc2)CC1 + CCN1C(C(=O)NC23CCC(C(=O)O)(CC2)CC3)C(c2cccc(Cl)c2F)C2(C(=O)Nc3cc(Cl)ccc32)C12CCCCC2

>  <result.unit>
%

>  <observed.value>
98.8

$$$$

// viability, T/C value for Cn1ncnc1[C@H]1c2n[nH]c(=O)c3cc(F)cc(c23)N[C@@H]1c1ccc(F)cc1 + CCN1C(C(=O)NC23CCC(C(=O)O)(CC2)CC3)C(c2cccc(Cl)c2F)C2(C(=O)Nc3cc(Cl)ccc32)C12CCCCC2 : 94.6

---

pIC50 reference
Tested on: 439559-082-T-J2-PDC complex spheroid growth
Test: Anticancer human tumor 439559-082-T-J2-PDC cell line growth inhibition [Asc];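 note: spheroids exposed to agents for 7 days starting day 3 after seeding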
Settings: curve of first compound; second compound 3 µM
pIC50: −log10 of the molar value.

>  <molecule>
COc1c(OCCCN2CCOCC2)ccc2c3n(c(=NC(=O)c4cnc(N)nc4)nc12)CCN3 + CCN1C(C(=O)NC23CCC(C(=O)O)(CC2)CC3)C(c2cccc(Cl)c2F)C2(C(=O)Nc3cc(Cl)ccc32)C12CCCCC2

>  <pIC50>
< 6.00

$$$$
>  <molecule>
C=CC(=O)N1CCN(c2nc(=O)n(-c3c(C)ccnc3C(C)C)c3nc(-c4c(O)cccc4F)c(F)cc23)C(C)C1 (stereo not drawn) + CCN1C(C(=O)NC23CCC(C(=O)O)(CC2)CC3)C(c2cccc(Cl)c2F)C2(C(=O)Nc3cc(Cl)ccc32)C12CCCCC2

>  <pIC50>
< 5.00

$$$$

As a next step, examine the molecule that follows.
Field pIC50 (system: 439559-082-T-J2-PDC complex spheroid growth) for entry Cc1nc(N2CCC3(CC2)COC(C)C3N)c(CO)nc1Sc1ccnc(N)c1Cl (stereo not drawn) + CCN1C(C(=O)NC23CCC(C(=O)O)(CC2)CC3)C(c2cccc(Cl)c2F)C2(C(=O)Nc3cc(Cl)ccc32)C12CCCCC2 = < 5.52

---

# key: entry, value: viability, T/C
Test system: 439559-082-T-J2-PDC complex spheroid growth
Test: Anticancer human tumor 439559-082-T-J2-PDC cell line growth inhibition [Asc];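 note: spheroids exposed to agents for 7 days starting day 3 after seeding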;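 for viability, T/C: percent of DMSO vehicle control viability with 100% = vehicle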
Settings: second compound 0.0316 µM; first compound 0.00316 µM; stronger effect = lower value
Description: Multicellular complex tumor spheroid response to apoptosis pathway targeting inhibitors Alrizomadlin, Pelcitoclax, and Dasminapant in combination with a variety of drugs and investigational agents in selected tumor cell lines […] Compounds. […] If the clinical Cmax for an agent had not been determined, the highest concentration tested was 10 microM. […]
Express the result in % but write the number alone.

>  <molecule>
CCN1CCN(Cc2ccc(Nc3ncc(F)c(-c4cc(F)c5nc(C)n(C(C)C)c5c4)n3)nc2)CC1 + CNC(C)C(=O)NC1CN(S(=O)(=O)c2cccc(S(=O)(=O)N3CCC4CCC(C(=O)NC(c5ccccc5)c5ccccc5)N4C(=O)C(NC(=O)C(C)NC)C3)c2)CCC2CCC(C(=O)NC(c3ccccc3)c3ccccc3)N2C1=O

>  <recorded.endpoint>
viability, T/C

>  <observed.value>
95.8

$$$$
>  <molecule>
O=C(c1ccc(F)c(F)c1Nc1ccc(I)cc1F)N1CC(O)([C@@H]2CCCCN2)C1 + CNC(C)C(=O)NC1CN(S(=O)(=O)c2cccc(S(=O)(=O)N3CCC4CCC(C(=O)NC(c5ccccc5)c5ccccc5)N4C(=O)C(NC(=O)C(C)NC)C3)c2)CCC2CCC(C(=O)NC(c3ccccc3)c3ccccc3)N2C1=O

>  <recorded.endpoint>
viability, T/C

>  <observed.value>
108

$$$$
>  <molecule>
COc1c(OCCCN2CCOCC2)ccc2c3n(c(=NC(=O)c4cnc(N)nc4)nc12)CCN3 + CNC(C)C(=O)NC1CN(S(=O)(=O)c2cccc(S(=O)(=O)N3CCC4CCC(C(=O)NC(c5ccccc5)c5ccccc5)N4C(=O)C(NC(=O)C(C)NC)C3)c2)CCC2CCC(C(=O)NC(c3ccccc3)c3ccccc3)N2C1=O

>  <recorded.endpoint>
viability, T/C

>  <observed.value>
93.2

$$$$
>  <molecule>
Cn1ncnc1[C@H]1c2n[nH]c(=O)c3cc(F)cc(c23)N[C@@H]1c1ccc(F)cc1 + CNC(C)C(=O)NC1CN(S(=O)(=O)c2cccc(S(=O)(=O)N3CCC4CCC(C(=O)NC(c5ccccc5)c5ccccc5)N4C(=O)C(NC(=O)C(C)NC)C3)c2)CCC2CCC(C(=O)NC(c3ccccc3)c3ccccc3)N2C1=O

>  <recorded.endpoint>
viability, T/C

>  <observed.value>
101

$$$$

Next:
// molecule NC1CCC(NC2CC2c2ccccc2)CC1 (stereo not given) + CNC(C)C(=O)NC1CN(S(=O)(=O)c2cccc(S(=O)(=O)N3CCC4CCC(C(=O)NC(c5ccccc5)c5ccccc5)N4C(=O)C(NC(=O)C(C)NC)C3)c2)CCC2CCC(C(=O)NC(c3ccccc3)c3ccccc3)N2C1=O , assay 439559-082-T-J2-PDC complex spheroid growth, viability, T/C value: 101

---

Each entry below carries its recorded IC50.
Tested on: 439559-082-T-J2-PDC complex spheroid growth
Assay: Anticancer human tumor 439559-082-T-J2-PDC cell line growth inhibition [Asc];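 note: spheroids exposed to agents for 7 days starting day 3 after seeding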
Details: curve of first compound; second compound 3 µM

>  <compound>
O=C(c1cc(Cc2n[nH]c(=O)c3ccccc23)ccc1F)N1CCN(C(=O)C2CC2)CC1 + CCN1C(C(=O)NC23CCC(C(=O)O)(CC2)CC3)C(c2cccc(Cl)c2F)C2(C(=O)Nc3cc(Cl)ccc32)C12CCCCC2

>  <IC50>
> 10000 nM

$$$$
>  <compound>
C#Cc1c(F)ccc2cc(O)cc(-c3ncc4c(N5CC6CCC(C5)N6)nc(OCC56CCCN5CC(F)C6)nc4c3F)c12 (centres undefined) + CCN1C(C(=O)NC23CCC(C(=O)O)(CC2)CC3)C(c2cccc(Cl)c2F)C2(C(=O)Nc3cc(Cl)ccc32)C12CCCCC2

>  <IC50>
593 nM

$$$$
>  <compound>
NC1CCC(NC2CC2c2ccccc2)CC1 (centres undefined) + CCN1C(C(=O)NC23CCC(C(=O)O)(CC2)CC3)C(c2cccc(Cl)c2F)C2(C(=O)Nc3cc(Cl)ccc32)C12CCCCC2

>  <IC50>
> 100 nM

$$$$
>  <compound>
CNC(C)C(=O)NC1CN(S(=O)(=O)c2cccc(S(=O)(=O)N3CCC4CCC(C(=O)NC(c5ccccc5)c5ccccc5)N4C(=O)C(NC(=O)C(C)NC)C3)c2)CCC2CCC(C(=O)NC(c3ccccc3)c3ccccc3)N2C1=O (centres undefined) + CCN1C(C(=O)NC23CCC(C(=O)O)(CC2)CC3)C(c2cccc(Cl)c2F)C2(C(=O)Nc3cc(Cl)ccc32)C12CCCCC2

>  <IC50>
> 1000 nM

$$$$

Noted for C=C(F)C(=O)N1CCN(c2nc(OCC3CCCN3C)nc3c2CCN(c2cccc4cccc(Cl)c24)C3)CC1CC#N (centres undefined) + CCN1C(C(=O)NC23CCC(C(=O)O)(CC2)CC3)C(c2cccc(Cl)c2F)C2(C(=O)Nc3cc(Cl)ccc32)C12CCCCC2 : its IC50 reads 5120 nM

// sample NC(=O)C(=Cn1cnc(-c2cc(C(F)(F)F)cc(C(F)(F)F)c2)n1)c1cncnc1 + CCN1C(C(=O)NC23CCC(C(=O)O)(CC2)CC3)C(c2cccc(Cl)c2F)C2(C(=O)Nc3cc(Cl)ccc32)C12CCCCC2 , its IC50 was > 300 nM

Lookup result for CCN1CCN(Cc2ccc(Nc3ncc(F)c(-c4cc(F)c5nc(C)n(C(C)C)c5c4)n3)nc2)CC1 + CCN1C(C(=O)NC23CCC(C(=O)O)(CC2)CC3)C(c2cccc(Cl)c2F)C2(C(=O)Nc3cc(Cl)ccc32)C12CCCCC2 ; measured IC50: > 1000 nM

# compound O=C(c1ccc(F)c(F)c1Nc1ccc(I)cc1F)N1CC(O)([C@@H]2CCCCN2)C1 + CCN1C(C(=O)NC23CCC(C(=O)O)(CC2)CC3)C(c2cccc(Cl)c2F)C2(C(=O)Nc3cc(Cl)ccc32)C12CCCCC2 ; its IC50 = 97.6 nM

IC50 recorded for this compound, Cn1ncnc1[C@H]1c2n[nH]c(=O)c3cc(F)cc(c23)N[C@@H]1c1ccc(F)cc1 + CCN1C(C(=O)NC23CCC(C(=O)O)(CC2)CC3)C(c2cccc(Cl)c2F)C2(C(=O)Nc3cc(Cl)ccc32)C12CCCCC2 , is > 100 nM
